system: H37Rv strain of M. tuberculosis; assay: Alamar Blue Susceptibility Test (MABA); type: cell-based; conditions: Mycobacterium tuberculosis; H37Rv strain of M. tuberculosis; Alamar Blue; read-out: MABA (TB growth inhibition, colourimetric assay)
Counter-ions that a name gives are not always drawn.
measured.endpoint: MIC

Check out these entries, answers already filled in.
[
  {
    "compound": "Nc1nc(NCc2ccccc2)c2ccccc2n1 [compound 3, N^4-Benzylquinazoline-2,4-diamine, reference compound]",
    "assay.target": "H37Rv strain of M. tuberculosis",
    "measured.endpoint": "MIC",
    "value.reported": "50 to 128 µM"
  },
  {
    "compound": "Fc1ccc(CNc2nc(N3CCc4ccc(Br)cc4C3)nc3ccccc23)cc1 [Compound 193]",
    "assay.target": "H37Rv strain of M. tuberculosis",
    "measured.endpoint": "MIC",
    "value.reported": "10 to 50 µM"
  },
  {
    "compound": "Fc1ccc(CNc2nc(N3Cc4ccccc4C3)nc3ccccc23)cc1 [Compound 179, hydrochloride]",
    "assay.target": "H37Rv strain of M. tuberculosis",
    "measured.endpoint": "MIC",
    "value.reported": "< 10 µM"
  },
  {
    "compound": "Fc1ccc(CNc2nc(NCc3ccccc3)c3ccccc3n2)cc1 [Compound 126, hydrochloride]",
    "assay.target": "H37Rv strain of M. tuberculosis",
    "measured.endpoint": "MIC",
    "value.reported": "10 to 50 µM"
  },
  {
    "compound": "Clc1ccc(N2CCN(c3nc(NCc4ccccc4)c4ccccc4n3)CC2)cc1 [Compound 134, hydrochloride]",
    "assay.target": "H37Rv strain of M. tuberculosis",
    "measured.endpoint": "MIC",
    "value.reported": "< 10 µM"
  },
  {
    "compound": "C[C@@H](Nc1nc(N2CCCCC2)nc2ccccc12)c1cccc2ccccc12 [Compound 99, hydrochloride]",
    "assay.target": "H37Rv strain of M. tuberculosis",
    "measured.endpoint": "MIC",
    "value.reported": "< 10 µM"
  }
]

Consider Fc1ccc(CNc2nc(N3CCCC3)nc3ncccc23)cc1 [Compound 173] . Its measured MIC is 10 to 50 µM

Consider c1ccc(CNc2nc(N3CCc4ccccc4C3)nc3ccccc23)cc1 [Compound 30] . Its measured MIC is < 10 µM
